# system name: Rac-1 (Homo sapiens, UniProt P63000)
# protocol: Ras GTP binding domain inhibition assay (Cy3-GTP/Cy5-GTP competition)
# measurement parameters: without SOS, read-out: Rac-1: % inh.
quantity kind: inhibition at 20 µM

[[record]]
compound = "COC1CCN(c2nc(-c3nccn3C)nc3sc(-c4ccncc4C)c(-c4ccccc4)c23)C1 (stereo not shown) [drawing 955]"
quantity_kind = "inhibition at 20 µM"
endpoint_result = "1 to 25%"


Request: Entry O=C(c1nc(-c2ccccn2)nc(O)c1O)N1CCOCC1 [drawing 935] : reported inhibition at 20 µM = ?
Response: 51 to 75%

Request: Entry COCCn1cc(-c2sc3nc(-c4nccn4C)nc(N4CCC(OC)C4)c3c2-c2ccccc2)cn1 (stereo not shown) [drawing 976] : reported inhibition at 20 µM = ?
Response: 51 to 75%

Request: # get_value(readout='inhibition at 20 µM', item= CN(C)CCOCCNc1nc(-c2nccn2C)nc2sc(-c3ccn(C)n3)c(-c3ccccc3)c12 [drawing 1042] )
Response: 51 to 75%

Request: # query: inhibition at 20 µM of entry COc1nscc1-c1sc2nc(-c3nccn3C)nc(N3CCC(OC)C3)c2c1-c1ccccc1 (stereo not shown) [drawing 975]
Response: 26 to 50%

Request: Can you share its inhibition at 20 µM? I mean this compound: CCOc1cccc(Nc2nc(-c3ccccn3)nc(O)c2OC)c1 [drawing 1017]
Response: 76 to 100%

Request: Dear colleague, I am looking for the recorded inhibition at 20 µM of the following compound: COc1cccc(-c2csc3c(O)nc(-c4nccn4C)nc23)c1Cl [drawing 1013]
Response: 1 to 25%

Request: Bench note: what inhibition at 20 µM did Oc1nc(-c2cn(-c3ccccc3)cn2)nc2c(-c3ccccn3)csc12 [drawing 982] show?
Response: 26 to 50%

Request: Need inhibition at 20 µM of Cn1ccc(-c2sc3nc(-c4nccn4C)nc(N[C@H]4C[C@@H](O)C4)c3c2-c2ccccc2)n1 [drawing 1043] , thanks.
Response: 1 to 25%

Request: Reported inhibition at 20 µM for COCCNc1nc(-c2nccn2C)nc2sc(-c3cccc(OC)c3)c(-c3ccc(OC)cc3)c12 [drawing 1010] : what is it?
Response: 1 to 25%

Request: Reported inhibition at 20 µM, compound CO[C@@H]1CCC(Nc2nc(-c3nccn3C)nc3sc(-c4ccn(C)n4)c(-c4ccccc4)c23)C1 (stereo partly shown) [drawing 994] : ____
Response: 26 to 50%

Request: So what does the record say about inhibition at 20 µM for Cc1cn(C)c(-c2nc(O)c3scc(-c4ccccn4)c3n2)n1 [drawing 942] ?
Response: 51 to 75%

Request: Any idea what its inhibition at 20 µM is? The compound is COCCc1ccc(Oc2nc(-c3ccccn3)nc(O)c2OC)cc1 [drawing 949]
Response: 51 to 75%

Request: For the compound COc1cccc(-c2sc3nc(-c4nccn4C)nc(N[C@H]4C[C@@H](OC)C4)c3c2-c2ccccc2)c1F [drawing 1026] , what inhibition at 20 µM is on record?
Response: 51 to 75%

Request: Bench note: what inhibition at 20 µM did COCCN(C)C(=O)c1nc(-c2ccccn2)nc(O)c1O [drawing 945] show?
Response: 51 to 75%

Request: Reported inhibition at 20 µM, compound COC1CCN(C(=O)c2sc3nc(-c4nccn4C)nc(N[C@H]4C[C@@H](OC)C4)c3c2-c2ccccc2)C1 (stereo partly shown) [drawing 1058] : ____
Response: 76 to 100%

Request: Requested read-out: inhibition at 20 µM. Entry: CO[C@H]1CC[C@@H](Nc2nc(-c3nccn3C)nc3sc(-c4ccn(C(C)C)n4)c(C)c23)C1 [drawing 1054]
Response: 51 to 75%

Request: For the compound COC1CCC(Nc2nc(-c3nccn3C)nc3sc(-c4cccc5[nH]ncc45)c(-c4ccccc4)c23)C1 (stereo not shown) [drawing 1023] , what inhibition at 20 µM is on record?
Response: 51 to 75%

Request: Name the recorded inhibition at 20 µM for COc1ccc(-c2c(-c3cccc(OC)c3F)sc3nc(-c4nccn4C)nc(N4CCC(OC)C4)c23)cc1 (stereo not shown) [drawing 941] .
Response: 0%

Request: # query: inhibition at 20 µM of entry COc1ccc(Oc2nc(-c3ccccn3)nc(O)c2OC)cc1 [drawing 950]
Response: 76 to 100%

Request: Look up inhibition at 20 µM: COc1c(O)nc(-c2ccccn2)nc1Oc1ccc(C(=O)N(C)C)cc1 [drawing 1014]
Response: 51 to 75%

###

compounds and their reported inhibition at 20 µM
# system name: KRas G12D mutant (Homo sapiens, UniProt P01116, G12D)
# Construct: fused on or other part: His tag, used for capture on nickel-coated plates
# protocol: Ras GTP binding domain inhibition assay (Cy3-GTP/Cy5-GTP competition)
# measurement parameters: 20 μM; without SOS; read-out: KRas G12D mutant: % inh.

Request: Any idea what inhibition at 20 µM was measured for Cc1cc(Cn2ccnc2-c2nc(O)c3scc(-c4ccccn4)c3n2)on1 [drawing 846] ?
Response: 51 to 75%

Request: Endpoint output: inhibition at 20 µM of Cn1ccc(-c2sc3nc(-c4nccn4C)nc(NC4CCOCC4)c3c2-c2ccccc2)n1 [drawing 862] . Value?
Response: 1 to 25%

Request: Field request: inhibition at 20 µM | item: COc1cccc(Oc2nc(-c3ccccn3)nc(O)c2OC)c1 [drawing 801]
Response: 76 to 100%

Request: Which inhibition at 20 µM is listed for Cn1ccnc1-c1nc(O)c(O)c(C(=O)NC2CCCC2)n1 [drawing 827] ?
Response: 51 to 75%

Request: Which inhibition at 20 µM is listed for O=C(NCc1ccccc1)c1nc(-c2ccccn2)nc(O)c1O [drawing 821] ?
Response: 51 to 75%

###

# system name: KRas G12D mutant (Homo sapiens, UniProt P01116, G12D)
# Construct: fused on or other part: His tag, used for capture on nickel-coated plates
# protocol: Ras GTP binding domain inhibition assay (Cy3-GTP/Cy5-GTP competition)
# measurement parameters: 20 μM; without SOS (Table 7A); read-out: KRas G12D mutant: % inh.
Quick reference for inhibition at 20 µM among some compounds

Recorded inhibition at 20 µM, per entry:
[[record]]
compound = "CN(C)CCOCCNc1nc(-c2nccn2C)nc2sc(-c3ccn(C)n3)c(-c3ccccc3)c12 [drawing 907]"
quantity_kind = "inhibition at 20 µM"
endpoint_result = "26 to 50%"

[[record]]
compound = "CO[C@H]1CC[C@@H](Nc2nc(-c3nccn3C)nc(C(=O)N3CCc4c(O)cccc4C3)c2C)C1 [drawing 901]"
quantity_kind = "inhibition at 20 µM"
endpoint_result = "26 to 50%"

[[record]]
compound = "COC1CCC(Nc2nc(-c3nccn3C)nc3sc(-c4cccc(O)c4F)c(-c4ccccc4)c23)C1 (stereo not drawn) [drawing 885]"
quantity_kind = "inhibition at 20 µM"
endpoint_result = "26 to 50%"

[[record]]
compound = "COC1CCC(Nc2nc(-c3nccn3C)nc3sc(-c4cccc5[nH]ncc45)c(-c4ccccc4)c23)C1 (stereo not drawn) [drawing 888]"
quantity_kind = "inhibition at 20 µM"
endpoint_result = "26 to 50%"

[[record]]
compound = "CC(C)COc1ccc(-c2csc3c(O)nc(-c4nccn4Cc4ccccn4)nc23)cn1 [drawing 899]"
quantity_kind = "inhibition at 20 µM"
endpoint_result = "76 to 100%"


Request: Recorded inhibition at 20 µM of CO[C@H]1CC[C@@H](Nc2nc(-c3ncc[nH]3)nc3sc(-c4ccn(C)n4)c(-c4ccccc4)c23)C1 [drawing 911] , please.
Response: 26 to 50%

###

# system name: KRas G12D mutant (Homo sapiens, UniProt P01116, G12D)
# Construct: fused on or other part: His tag, used for capture on nickel-coated plates
# protocol: Ras GTP binding domain inhibition assay (Cy3-GTP/Cy5-GTP competition)
# measurement parameters: 20 μM; with SOS; read-out: KRas G-12D mutant + SOS: % inh.
# Source text: The following method was developed as specific assay for the following proteins: KRas wild type, KRas Q61H mutant, KRas G12C mutant, KRas G12D mutant, HRas wild type, Rac-1, and Rho-A. […] The small GTPases proteins: KRas wild type. KRas Q61H mutant, KRas G12C mutant, KRas G12D mutants, HRas wild type, Rac-1, and Rho-A were expressed as His-tagged proteins. In addition, the Guanosine nucleotide Exchange Factor (GEF) Sos protein (residues 556-1049) was expressed as a His-tagged protein. […]
quantity kind: inhibition at 20 µM

[[record]]
compound = "COCCNc1nc(-c2nccn2C)nc2sc(-c3cccc(OC)c3Cl)c(-c3ccc(OC)cc3)c12 [drawing 874]"
quantity_kind = "inhibition at 20 µM"
endpoint_result = "51 to 75%"

[[record]]
compound = "COC1CCN(c2nc(-c3nccn3C)nc3sc(-c4ccccc4CO)c(-c4ccccc4)c23)C1.Cl (stereo not drawn)"
quantity_kind = "inhibition at 20 µM"
endpoint_result = "51 to 75%"

[[record]]
compound = "COc1ccc(Oc2nc(-c3ccccn3)nc(O)c2OC)cc1 [drawing 815]"
quantity_kind = "inhibition at 20 µM"
endpoint_result = "26 to 50%"

[[record]]
compound = "O=C(c1nc(-c2ccccn2)nc(O)c1O)N1CCOCC1 [drawing 800]"
quantity_kind = "inhibition at 20 µM"
endpoint_result = "26 to 50%"

[[record]]
compound = "COc1cccc(-c2sc3nc(-c4nccn4C)nc(N4CCC(OC)C4)c3c2-c2cscn2)c1 (stereo not drawn) [drawing 867]"
quantity_kind = "inhibition at 20 µM"
endpoint_result = "51 to 75%"


Request: # query: inhibition at 20 µM of entry COCC1CCN(c2nc(-c3nccn3C)nc3sc(-c4ccn(C)n4)c(-c4ccccc4)c23)C1 (stereo not drawn) [drawing 858]
Response: 26 to 50%

Request: // inhibition at 20 µM lookup, key: COCC(C)Nc1nc(-c2nccn2C)nc2sc(-c3ccn(C)n3)c(-c3ccc(OC)cc3)c12 (stereo not drawn) [drawing 869]
Response: 1 to 25%

Request: Report inhibition at 20 µM for COC(=O)c1nc(C2NCCN2C)nc(O)c1O (stereo not drawn) please.
Response: 26 to 50%

Request: For the compound COC1CCN(c2nc(-c3nccn3C)nc3sc(-c4ccnc(N(C)C)c4)c(-c4ccccc4)c23)C1.Cl (stereo not drawn) , what inhibition at 20 µM is on record?
Response: 51 to 75%

Request: Bench note: what inhibition at 20 µM did CO[C@H]1CCC(Nc2nc(-c3nccn3C)nc3sc(-c4ccn(C)n4)c(-c4ccccc4)c23)C1 (stereo partly drawn) [drawing 860] show?
Response: 51 to 75%

Request: Requested read-out: inhibition at 20 µM. Entry: O=C(c1nc(-c2ccccn2)nc(O)c1O)N1CCCC1 [drawing 831]
Response: 1 to 25%

Request: For the compound shown here, CCN(CC)C(=O)c1nc(-c2nccn2C)nc(O)c1O [drawing 829] , give the reported inhibition at 20 µM.
Response: 1 to 25%

Request: Which inhibition at 20 µM is reported for this compound? COC1CCN(c2nc(-c3nccn3C)nc3sc(-c4cnn(C)c4)c(-c4ccccc4)c23)C1.Cl (stereo not drawn)
Response: 76 to 100%
